Some compounds, each annotated with its measured inhibition of growth at 50 µg/mL.
# Test system: T47D
# MEASUREMENT DESCRIPTION: Growth inhibition of human T47D cells at 50 ug/ml after 24 hrs by spectrophotometric analysis
# Assay type: functional
# CONDITION CONTEXT: read-out: GI
Numbers only here, please. The scale is %.

Some solved cases for reference:
> print(dat)
                               given.smiles  observed.value
1        Cc1ccccc1N1CCn2c1nnc(-c1ccco1)c2=O              25
2       O=c1c(-c2ccco2)nnc2n1CCN2c1ccccc1Cl               5
3     COc1ccc(N2CCn3c2nnc(-c2ccco2)c3=O)cc1              50
4  O=c1c(-c2ccco2)nnc2n1CCN2c1ccc(Cl)c(Cl)c1              10
5      Cc1ccc(N2CCn3c2nnc(-c2ccco2)c3=O)cc1              40

Entry COc1ccccc1N1CCn2c1nnc(-c1ccco1)c2=O ; inhibition of growth at 50 µg/mL = 0
